Tested on: pentylenetetrazol
run_description: Subcutaneous Metrazol seizure test (scMET), mice i.p.
Assay type: in vivo, Carworth Farms No. 1 mice
settings: mice i.p., 100 mg/kg, 0.5h
Catalogue of ScMET, number of animals protected / total number of animals tested values

Consider the following illustrative entries.
Exercise: Given NC(=O)OCC(F)(COC(N)=O)c1ccccc1 [fluoro felbamate] , state its recorded ScMET, number of animals protected / total number of animals tested.
Solution: 0/1

Exercise: Given NC(=O)OCC(F)(CO)c1ccccc1 (stereo not shown) [fluoro monocarbamate felbamate] , state its recorded ScMET, number of animals protected / total number of animals tested.
Solution: 0/1

Exercise: Given O=C1NC(=O)C(F)(c2ccccc2)CO1 (stereo not shown) , state its recorded ScMET, number of animals protected / total number of animals tested.
Solution: 0/1

Moving on to the next compound.
Exercise: Given O=C1NC(O)C(c2ccccc2)CO1 (stereo not shown) , state its recorded ScMET, number of animals protected / total number of animals tested.
Solution: 2/5

###

Test system: rats
run_description: Minimal neurotoxicity (TOX), positional sense and gait and stance tests, rats p.o.
Format: in vivo
settings: rat p.o., 30 mg/kg, 4.0h
Description: The fluoro derivatives synthesized were submitted to the National Institute of Neurological Disorders and Stroke (NINDS) for evaluation in a standard panel of assays. […] The felbamate derivatives were evaluated for anticonvulsant activity following intraperitoneal (i.p.) administration in mice and oral administration in rats. […]
endpoint_label: TOX, number of animals exhibiting toxic effects / total number of animals tested

Exercise: Given O=C1NC(O)C(c2ccccc2)CO1 (stereo not shown) , state its recorded TOX, number of animals exhibiting toxic effects / total number of animals tested.
Solution: 0/4

More entries:
Exercise: Given O=C1NC(=O)C(F)(c2ccccc2)CO1 (stereo not shown) , state its recorded TOX, number of animals exhibiting toxic effects / total number of animals tested.
Solution: 0/4

Exercise: Given NC(=O)OCC(F)(COC(N)=O)c1ccccc1 [fluoro felbamate] , state its recorded TOX, number of animals exhibiting toxic effects / total number of animals tested.
Solution: 1/4

Exercise: Given NC(=O)OCC(F)(CO)c1ccccc1 (stereo not shown) [fluoro monocarbamate felbamate] , state its recorded TOX, number of animals exhibiting toxic effects / total number of animals tested.
Solution: 0/4

###

run_description: Minimal neurotoxicity (TOX), rotorod test, mice i.p.
Type: in vivo
settings: in vivo, ip; mouse, I.P.
endpoint_label: ED50 (mg/kg)
Just the number in mg/kg, nothing appended.

Exercise: Given NC(=O)OCC(F)(COC(N)=O)c1ccccc1 [fluoro felbamate] , state its recorded ED50.
Solution: 115

###

Tested on: mice
run_description: Minimal neurotoxicity (TOX), rotorod test, mice i.p.
Format: in vivo
settings: mice i.p., 30 mg/kg, 0.5h
Protocol: The fluoro derivatives synthesized were submitted to the National Institute of Neurological Disorders and Stroke (NINDS) for evaluation in a standard panel of assays. […] The felbamate derivatives were evaluated for anticonvulsant activity following intraperitoneal (i.p.) administration in mice and oral administration in rats. […]
Catalogue of TOX, number of animals exhibiting toxic effects / total number of animals tested values

Consider the following illustrative entries.
Exercise: Given O=C1NC(O)C(c2ccccc2)CO1 (stereo not shown) , state its recorded TOX, number of animals exhibiting toxic effects / total number of animals tested.
Solution: 0/4

Exercise: Given NC(=O)OCC(F)(CO)c1ccccc1 (stereo not shown) [fluoro monocarbamate felbamate] , state its recorded TOX, number of animals exhibiting toxic effects / total number of animals tested.
Solution: 0/4

Exercise: Given NC(=O)OCC(F)(COC(N)=O)c1ccccc1 [fluoro felbamate] , state its recorded TOX, number of animals exhibiting toxic effects / total number of animals tested.
Solution: 1/4

Moving on to the next compound.
Exercise: Given O=C1NC(=O)C(F)(c2ccccc2)CO1 (stereo not shown) , state its recorded TOX, number of animals exhibiting toxic effects / total number of animals tested.
Solution: 0/4
